Experiment: Stability of blank-LNP at 2-8° C. (particle size, PDI)
Assay type: physicochemical
Recorded conditions: blank-LNP 48/40.5/10/1.5 mol %, 1 month
Quantity measured: PDI, T = 1 month
Answer with the value's number alone.

Entry CCCCCCCCOC/C=C\COC(=O)CCCCCCCCC(CCCCCCCCC(=O)OC(CCCCCCCC)CCCCCCCC)OC(=O)CCCN(C)C (stereo not shown) : reported PDI, T = 1 month = ?
0.11

Repeat for the following compound: CCCCCCCCCOC(=O)CCCCCCCOc1ccc(OCCCCCCCC(=O)OCCCCCCCCC)c(COC(=O)CCCN(C)C)c1
0.07

Repeat for the following compound: CCCCCCCCCOC(=O)CCCCCCCOc1ccc(OCCCCCCCC(=O)OC(CCCCCCCC)CCCCCCCC)c(COC(=O)CCCN(C)C)c1
0.14

Repeat for the following compound: CCCCCCCCCOC(=O)CCCCCCCOc1ccc(OCCCCCCCC(=O)OC(CCCCCCCC)CCCCCCCC)cc1COC(=O)CCCN(C)C
0.09

###

Experiment: RNA encapsulation/complexation efficiency by Ribogreen assay
Assay type: physicochemical
Recorded conditions: 48/40.5/10/1.5 mol %; blank-LNP added to lyophilized S2P RNA (55 ug/vial), N/P 7
Quantity measured: “Ready-to-use” S2P RNA formulation RNA complexation efficiency

Entry CCCCCCCCCOC(=O)CCCCCCCOc1ccc(OCCCCCCCC(=O)OC(CCCCCCCC)CCCCCCCC)cc1COC(=O)CCCN(C)C : reported “Ready-to-use” S2P RNA formulation RNA complexation efficiency = ?
42%

Repeat for the following molecule: CCCCCCCCCCC(CCCCCCCCCC)C(=O)OCCCCCCOc1ccc(OCCCCCCOC(=O)C(CCCCCCCCCC)CCCCCCCCCC)c(COC(=O)CCCN(C)C)c1
34%

Repeat for the following molecule: CCCCCCOCCC/C=C/COC(=O)CCCCCCCCC(CCCCCCCCC(=O)OC/C=C/CCCOCCCCCC)OC(=O)CCCN(C)C
34%

Repeat for the following molecule: CCCCCCCCCOC(=O)CCCCCCCOc1ccc(OCCCCCCCC(=O)OC(CCCCCCCC)CCCCCCCC)c(COC(=O)CCCN(C)C)c1
44%

Repeat for the following molecule: CCCCCCCCOC/C=C\COC(=O)CCCCCCCCC(CCCCCCCCC(=O)OC(CCCCCCCC)CCCCCCCC)OC(=O)CCCN(C)C (stereo not shown)
27%

Repeat for the following molecule: CC/C=C/CCCC(CCC/C=C/CC)OC(=O)CCCCCCCC(CCCCCCCC(=O)OC/C=C/CCCCCC)COC(=O)CCCN(C)C (stereo not shown)
34%

Repeat for the following molecule: CCCCCC/C=C/COC(=O)CCCCCCCCC(CCCCCCCCC(=O)OC/C=C/CCCCCC)OC(=O)CCCN(C)C
34%

Source listed as patent US20240390484A1.
